experimentSummary: Pharmacokinetic measurements in rats (intravenous and intra-tracheal dosing)
Assay type: in vivo
particulars: rat, 0.1 h
readoutKind: Lung conc i.t./i.v. Ratio at time (h)

{"smilesString": "COC(=O)c1cc2c(cc1C)/C(=C(/Nc1ccc(C(=O)NOCCN3CCN(CCO)CC3)cc1)c1ccccc1)C(=O)N2", "readoutKind": "Lung conc i.t./i.v. Ratio at time (h)", "obsValue": 6}
{"smilesString": "COC(=O)c1ccc2c(c1)NC(=O)/C2=C(\\Nc1ccc(C(=O)NOCCN(C)C)cc1)c1ccccc1", "readoutKind": "Lung conc i.t./i.v. Ratio at time (h)", "obsValue": 9.3}
{"smilesString": "COC(=O)c1cc2c(cc1C)/C(=C(/Nc1ccc(C(=O)NOCCN(C)C)c(C)c1)c1ccccc1)C(=O)N2", "readoutKind": "Lung conc i.t./i.v. Ratio at time (h)", "obsValue": 7.6}
{"smilesString": "COC(=O)c1ccc2c(c1)NC(=O)/C2=C(\\Nc1ccc(C(=O)NOCCN2CCN(C)CC2)cc1)c1ccccc1", "readoutKind": "Lung conc i.t./i.v. Ratio at time (h)", "obsValue": 13.2}

1 = COC(=O)c1cc2c(cc1C)/C(=C(/Nc1ccc(C(=O)NOCCN3CCN(C)CC3)cc1)c1ccccc1)C(=O)N2
2 = COC(=O)c1ccc2c(c1)NC(=O)/C2=C(\Nc1ccc(S(=O)(=O)NOCCN(C)C)cc1)c1ccccc1
Quick check, higher Lung conc i.t./i.v. Ratio at time (h) between 1 and 2 ? # reply format: chosen label
1
(1: 10.2, 2: 6.9)
